Entry source: ChEMBL document CHEMBL4359915

Test system: Candida albicans
Protocol notes: Antifungal activity against Candida albicans ATCC 90023 assessed as growth inhibition measured after 24 hrs by two-fold broth dilution method
Format: functional
Particulars: ATCC 90023, 24 h

Entry smiles: O=C(Nc1cccc(C(F)(F)F)c1)[C@H](O)[C@@H](O)C(=O)N1CCC2(CCNC2=O)CC1
MIC [µM]: 300

Entry smiles: O=C(Nc1ccc(F)c(F)c1)[C@H](O)[C@@H](O)C(=O)N1CCC2(CCNC2=O)CC1
MIC [µM]: 320

Entry smiles: COc1cccc(NC(=O)[C@H](O)[C@@H](O)C(=O)N2CCC3(CCNC3=O)CC2)c1
MIC [µM]: 650

Entry smiles: O=C(Nc1ccc(F)c(Cl)c1)[C@H](O)[C@@H](O)C(=O)N1CCC2(CCNC2=O)CC1
MIC [µM]: 150

Entry smiles: O=C(Nc1ccccc1)[C@H](O)[C@@H](O)C(=O)N1CCC2(CCNC2=O)CC1
MIC [µM]: 710

###

Tested on: Candida tropicalis
Protocol notes: Inhibition of Candida tropicalis ATCC 750 chitin synthase at 300 ug/ml using UDP-GlcNAc as substrate relative to control
So basically every entry gets a class from its inhibition, ranges being low band = under 50%, middle band = from 50% up to 70%, high band = 70% and over

Compound: O=C(Nc1ccc([N+](=O)[O-])cc1)[C@H](O)[C@@H](O)C(=O)N1CCC2(CCNC2=O)CC1
Cat: middle band
//
Compound: O=C(Nc1ccccc1F)[C@H](O)[C@@H](O)C(=O)N1CCC2(CCNC2=O)CC1
Cat: low band
//
Compound: O=C(Nc1cccc(Br)c1)[C@H](O)[C@@H](O)C(=O)N1CCC2(CCNC2=O)CC1
Cat: high band
//
Compound: O=C(Nc1ccccc1)[C@H](O)[C@@H](O)C(=O)N1CCC2(CCNC2=O)CC1
Cat: low band
//
Compound: O=C(Nc1ccc(Br)cc1)[C@H](O)[C@@H](O)C(=O)N1CCC2(CCNC2=O)CC1
Cat: high band
//
Compound: O=C(Nc1cc(C(F)(F)F)cc(C(F)(F)F)c1)[C@H](O)[C@@H](O)C(=O)N1CCC2(CCNC2=O)CC1
Cat: low band
//
Compound: O=C(Nc1ccccc1Cl)[C@H](O)[C@@H](O)C(=O)N1CCC2(CCNC2=O)CC1
Cat: high band
//
Compound: NC(=O)OC[C@H](O)[C@@H](O)[C@H](N)C(=O)N[C@H](C(=O)O)[C@H]1O[C@@H](n2cc(CO)c(=O)[nH]c2=O)[C@H](O)[C@@H]1O [POLYOXIN B]
Cat: high band
//
Compound: O=C(Nc1ccc(Cl)cc1)[C@H](O)[C@@H](O)C(=O)N1CCC2(CCNC2=O)CC1
Cat: middle band
//
Compound: COc1ccc(NC(=O)[C@H](O)[C@@H](O)C(=O)N2CCC3(CCNC3=O)CC2)cc1
Cat: high band
//
Compound: COc1ccccc1NC(=O)[C@H](O)[C@@H](O)C(=O)N1CCC2(CCNC2=O)CC1
Cat: low band
//
Compound: O=C(Nc1cccc(C(F)(F)F)c1)[C@H](O)[C@@H](O)C(=O)N1CCC2(CCNC2=O)CC1
Cat: low band
//
Compound: O=C(Nc1ccc(F)c(F)c1)[C@H](O)[C@@H](O)C(=O)N1CCC2(CCNC2=O)CC1
Cat: low band
//
Compound: O=C(Nc1ccc(F)cc1F)[C@H](O)[C@@H](O)C(=O)N1CCC2(CCNC2=O)CC1
Cat: middle band
//
Compound: O=C(Nc1ccc(F)cc1)[C@H](O)[C@@H](O)C(=O)N1CCC2(CCNC2=O)CC1
Cat: low band
//
Compound: COc1cccc(NC(=O)[C@H](O)[C@@H](O)C(=O)N2CCC3(CCNC3=O)CC2)c1
Cat: low band
//
Compound: O=C(Nc1ccc(Cl)cc1Cl)[C@H](O)[C@@H](O)C(=O)N1CCC2(CCNC2=O)CC1
Cat: high band
